# assay: Static bioassay, lethal concentration to cutthroat trout
# Assay type: in vivo, S. clarki
# test-parameters: cutthroat trout, water, 15 C; 192 h
measure-name: LC50 at 192 h (µg/mL)
Express your answer in µg/mL, writing the number without its unit.

CCOP(=O)(OCC)OC(Cl)C(Cl)(Cl)Cl (centres unmarked) | 0.018

Let us move to another entry and its LC50 at 192 h.
compound CCOP(=O)(OC=C(Cl)Cl)OCC [2,2-dichlorovinyl diethyl phosphate] , LC50 at 192 h observed: 1.8

* * *

# assay: Static bioassay, lethal concentration to kokanee
# Format: in vivo, a land-locked subspecies of sockeye salmon
# test-parameters: kokanee, water; 15 C; 192 h
measure-name: LC50 at 192 h (µg/mL)
Express your answer in µg/mL, writing the number without its unit.

compound CCOP(=O)(OCC)OC(Cl)C(Cl)(Cl)Cl (stereo not shown) , LC50 at 192 h observed: 0.027

* * *

# assay: Static bioassay, lethal concentration to Kamloops trout
# Assay type: in vivo, Kamloops (an adfluvial rainbow trout)
# test-parameters: kamloops trout, in vivo, with 2 Cl 1:300; 10 C; 96 h; read-out: LC50 in combination, 4 Cl component
measure-name: LC50 at 96 h (ng/mL)
Express your answer in ng/mL, writing the number without its unit.

molecule CCOP(=O)(OCC)OC(Cl)C(Cl)(Cl)Cl (stereo not shown) , LC50 at 96 h observed: 8

* * *

# assay: Static bioassay, lethal concentration to Kamloops trout
# Type: in vivo, Kamloops (an adfluvial rainbow trout)
# test-parameters: kamloops trout, in vivo, 5 C; 192 h; read-out: LC50
measure-name: LC50 at 192 h (µg/mL)
Express your answer in µg/mL, writing the number without its unit.

CCOP(=O)(OCC)OC(Cl)C(Cl)(Cl)Cl (centres unmarked) | 0.018

compound CCOP(=O)(OC=C(Cl)Cl)OCC [2,2-dichlorovinyl diethyl phosphate] , LC50 at 192 h observed: 5.1

* * *

# assay: Static bioassay, lethal concentration to Kamloops trout
# Type: in vivo, Kamloops (an adfluvial rainbow trout)
# test-parameters: kamloops trout, in vivo, 15 C; 96 h; read-out: LC50
measure-name: LC50 at 96 h (µg/mL)
Express your answer in µg/mL, writing the number without its unit.

compound CCOP(=O)(OC=C(Cl)Cl)OCC [2,2-dichlorovinyl diethyl phosphate] , LC50 at 96 h observed: 3.5

* * *

# assay: Static bioassay, lethal concentration to sockeye salmon
# Format: in vivo, O. nerka
# test-parameters: sockeye salmon, in vivo, with 4 Cl 300:1; 10 C; 96 h; read-out: LC50 in combination, 2 Cl component
# Description: Bioassays utilized water from an artesian well at Moscow, Idaho and from the headwaters of the Palouse River, also in Idaho. The chemical characteristics of the artesian water were analyzed as follows: Total hardness 67-120 mg/l; total dissolved solids, 160-175 mg/l; and pH 7.1. The chemistry of the Palouse River water was analyzed as follows: total hardness 17 mg/l; methyl orange alkalinity 26 mg/l; total dissolved solids, 32 mg/l and pH, 7.0. […]
measure-name: LC50 at 96 h (µg/mL)
Express your answer in µg/mL, writing the number without its unit.

compound CCOP(=O)(OC=C(Cl)Cl)OCC [2,2-dichlorovinyl diethyl phosphate] , LC50 at 96 h observed: 2.4

* * *

# assay: in vivo
# test-parameters: steelhead trout
measure-name: LC50 at 96 h (µg/mL)
Express your answer in µg/mL, writing the number without its unit.

compound CCOP(=O)(OC=C(Cl)Cl)OCC [2,2-dichlorovinyl diethyl phosphate] , LC50 at 96 h observed: 7.1

* * *

# assay: Static bioassay, lethal concentration to brook trout
# Type: in vivo, Salvelinus fontinalis
# test-parameters: brook trout, water; 15 C; 48 h
# Description: Bioassays utilized water from an artesian well at Moscow, Idaho and from the headwaters of the Palouse River, also in Idaho. The chemical characteristics of the artesian water were analyzed as follows: Total hardness 67-120 mg/l; total dissolved solids, 160-175 mg/l; and pH 7.1. The chemistry of the Palouse River water was analyzed as follows: total hardness 17 mg/l; methyl orange alkalinity 26 mg/l; total dissolved solids, 32 mg/l and pH, 7.0. […]
Item-by-item account of LC50 at 48 h
Express your answer in µg/mL, writing the number without its unit.

CCOP(=O)(OCC)OC(Cl)C(Cl)(Cl)Cl (centres unmarked) | 0.022

Let us move to another entry and its LC50 at 48 h.
compound CCOP(=O)(OC=C(Cl)Cl)OCC [2,2-dichlorovinyl diethyl phosphate] , LC50 at 48 h observed: 5

* * *

Item-by-item account of LC50 at 192 h
# assay: Static bioassay, lethal concentration to cutthroat trout
# Type: in vivo, S. clarki
# test-parameters: cutthroat trout, water, 10 C; 192 h
Express your answer in µg/mL, writing the number without its unit.

CCOP(=O)(OC=C(Cl)Cl)OCC [2,2-dichlorovinyl diethyl phosphate] | 4.8

Let us move to another entry and its LC50 at 192 h.
compound CCOP(=O)(OCC)OC(Cl)C(Cl)(Cl)Cl (centres unmarked) , LC50 at 192 h observed: 0.017

* * *

# assay: Static bioassay, lethal concentration to brook trout
# Type: in vivo, Salvelinus fontinalis
# test-parameters: brook trout, water; 15 C; 96 h
# Procedure: Bioassays utilized water from an artesian well at Moscow, Idaho and from the headwaters of the Palouse River, also in Idaho. The chemical characteristics of the artesian water were analyzed as follows: Total hardness 67-120 mg/l; total dissolved solids, 160-175 mg/l; and pH 7.1. The chemistry of the Palouse River water was analyzed as follows: total hardness 17 mg/l; methyl orange alkalinity 26 mg/l; total dissolved solids, 32 mg/l and pH, 7.0. […]
measure-name: LC50 at 96 h (µg/mL)
Express your answer in µg/mL, writing the number without its unit.

CCOP(=O)(OCC)OC(Cl)C(Cl)(Cl)Cl (centres unmarked) | 0.02

Let us move to another entry and its LC50 at 96 h.
compound CCOP(=O)(OC=C(Cl)Cl)OCC [2,2-dichlorovinyl diethyl phosphate] , LC50 at 96 h observed: 3.3

* * *

# assay: Static bioassay, lethal concentration to sockeye salmon
# Type: in vivo, O. nerka
# test-parameters: sockeye salmon, in vivo, with 2 Cl 1:300; 10 C; 192 h; read-out: LC50 in combination, 4 Cl component
measure-name: LC50 at 192 h (ng/mL)
Express your answer in ng/mL, writing the number without its unit.

molecule CCOP(=O)(OCC)OC(Cl)C(Cl)(Cl)Cl (stereo not shown) , LC50 at 192 h observed: 6

* * *

# assay: Static bioassay, lethal concentration to kokanee
# Format: in vivo, a land-locked subspecies of sockeye salmon
# test-parameters: kokanee, water; 15 C; 96 h
measure-name: LC50 at 96 h
Express the reported value numerically, then name its unit.

compound CCOP(=O)(OCC)OC(Cl)C(Cl)(Cl)Cl (stereo not shown) , LC50 at 96 h observed: 0.03 µg/mL

* * *

Item-by-item account of LC50 at 96 h
# assay: Static bioassay, lethal concentration to cutthroat trout
# Type: in vivo, S. clarki
# test-parameters: cutthroat trout, water, 15 C; 96 h
Express the reported value numerically, then name its unit.

molecule CCOP(=O)(OC=C(Cl)Cl)OCC [2,2-dichlorovinyl diethyl phosphate] , LC50 at 96 h observed: 2.5 µg/mL

molecule CCOP(=O)(OCC)OC(Cl)C(Cl)(Cl)Cl (centres unmarked) , LC50 at 96 h observed: 0.018 µg/mL

* * *

# assay: Static bioassay, lethal concentration to Kamloops trout
# Assay type: in vivo, Kamloops (an adfluvial rainbow trout)
# test-parameters: kamloops trout, in vivo, 10 C; 96 h; individually; read-out: LC50
measure-name: LC50 at 96 h (µg/mL)
Express your answer in µg/mL, writing the number without its unit.

CCOP(=O)(OC=C(Cl)Cl)OCC [2,2-dichlorovinyl diethyl phosphate] | 5

compound CCOP(=O)(OCC)OC(Cl)C(Cl)(Cl)Cl (centres unmarked) , LC50 at 96 h observed: 0.024

* * *

# assay: in vivo
# test-parameters: chinook salmon
measure-name: LC50 at 48 h (µg/mL)
Express your answer in µg/mL, writing the number without its unit.

molecule CCOP(=O)(OCC)OC(Cl)C(Cl)(Cl)Cl (stereo not shown) , LC50 at 48 h observed: 0.035

* * *

# assay: Static bioassay, lethal concentration to sockeye salmon
# Assay type: in vivo, O. nerka
# test-parameters: sockeye salmon, in vivo, 10 C; 192 h; read-out: LC50
measure-name: LC50 at 192 h (µg/mL)
Express your answer in µg/mL, writing the number without its unit.

compound CCOP(=O)(OC=C(Cl)Cl)OCC [2,2-dichlorovinyl diethyl phosphate] , LC50 at 192 h observed: 3.4

* * *

# assay: Static bioassay, lethal concentration to sockeye salmon
# Type: in vivo, O. nerka
# test-parameters: sockeye salmon, in vivo, 7.5 C; 192 h; read-out: LC50
measure-name: LC50 at 192 h
Express the reported value numerically, then name its unit.

CCOP(=O)(OC=C(Cl)Cl)OCC [2,2-dichlorovinyl diethyl phosphate] | 4 µg/mL

compound CCOP(=O)(OCC)OC(Cl)C(Cl)(Cl)Cl (centres unmarked) , LC50 at 192 h observed: 0.014 µg/mL
